System: MDA-MB-231 multicell spheroids, viability
Assay: Anticancer human tumor MDA-MB-231 cell line growth inhibition [PI3K];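 note: spheroids exposed to agents for seven days before reading; percent of vehicle control luminescence with DMSO treated spheroids as 100%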
Conditions: second compound 0.1 µM; first compound 0.0949 µM; hits give low values
Quantity name: viability, T/C (%)
The reply should contain only the number, in %.

Indicate its recorded viability, T/C; the compound in question is Cn1cnc2c(F)c(Nc3ccc(Br)cc3Cl)c(C(=O)NOCCO)cc21 + COc1c(OCCCN2CCOCC2)ccc2c3n(c(=NC(=O)c4cnc(N)nc4)nc12)CCN3 27.3

Indicate its recorded viability, T/C; the compound in question is Cn1cnc2c(F)c(Nc3ccc(Br)cc3Cl)c(C(=O)NOCCO)cc21 + CC(Nc1ncnc2nc[nH]c12)c1cc2cccc(Cl)c2c(=O)n1-c1ccccc1 50.2

Indicate its recorded viability, T/C; the compound in question is Cn1cnc2c(F)c(Nc3ccc(Br)cc3Cl)c(C(=O)NOCCO)cc21 + CC(Nc1ccc2c(c1)OCCn1cc(N3C(=O)OCC3C(F)F)nc1-2)C(N)=O 44

Indicate its recorded viability, T/C; the compound in question is Cn1cnc2c(F)c(Nc3ccc(Br)cc3Cl)c(C(=O)NOCCO)cc21 + Cc1nc(NC(=O)N2CCCC2C(N)=O)sc1-c1ccnc(C(C)(C)C(F)(F)F)c1 47.8

* * *

System: MDA-MB-231 multicell spheroids, viability
Assay: Anticancer human tumor MDA-MB-231 cell line growth inhibition [PI3K];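 note: spheroids exposed to agents for seven days before reading; percent of vehicle control luminescence with DMSO treated spheroids as 100%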
Settings: second compound 0.0316 µM; first compound 0.1 µM; hits give low values
Task for the reader: assign each of the following compounds its reported viability, T/C.
The reply should contain only the number, in %.

Give viability, T/C only, for CC(C)n1nc(-c2ccc3oc(N)nc3c2)c2c(N)ncnc21 + Cc1nc(NC(=O)N2CCCC2C(N)=O)sc1-c1ccnc(C(C)(C)C(F)(F)F)c1 , using MDA-MB-231 multicell spheroids, viability data. 35.2

Give viability, T/C only, for CNC(=O)c1ccc(N2C(=S)N(c3ccc(C#N)c(C(F)(F)F)c3)C(=O)C2(C)C)cc1F + CC(Nc1ncnc2nc[nH]c12)c1cc2cccc(Cl)c2c(=O)n1-c1ccccc1 , using MDA-MB-231 multicell spheroids, viability data. 110

Give viability, T/C only, for CNC(=O)c1ccc(N2C(=S)N(c3ccc(C#N)c(C(F)(F)F)c3)C(=O)C2(C)C)cc1F + COc1c(OCCCN2CCOCC2)ccc2c3n(c(=NC(=O)c4cnc(N)nc4)nc12)CCN3 , using MDA-MB-231 multicell spheroids, viability data. 64.5

Give viability, T/C only, for CC1(C)CCC(Nc2ncc(C(F)(F)F)c(-c3c[nH]c4c(P(C)(C)=O)c(C#N)ccc34)n2)CN1 (configuration not stated) + Cc1nc(NC(=O)N2CCCC2C(N)=O)sc1-c1ccnc(C(C)(C)C(F)(F)F)c1 , using MDA-MB-231 multicell spheroids, viability data. 42.8

Give viability, T/C only, for C[C@@H](NC(=O)c1ncnc(N)c1Cl)c1ncc(C(=O)Nc2cc(C(F)(F)F)c(Cl)cn2)s1 + COc1c(OCCCN2CCOCC2)ccc2c3n(c(=NC(=O)c4cnc(N)nc4)nc12)CCN3 , using MDA-MB-231 multicell spheroids, viability data. 72.9

Give viability, T/C only, for CC1(C)CCC(CN2CCN(c3ccc(C(=O)NS(=O)(=O)c4ccc(NCC5CCOCC5)c([N+](=O)[O-])c4)c(Oc4cnc5[nH]ccc5c4)c3)CC2)=C(c2ccc(Cl)cc2)C1 + CC(Nc1ccc2c(c1)OCCn1cc(N3C(=O)OCC3C(F)F)nc1-2)C(N)=O , using MDA-MB-231 multicell spheroids, viability data. 77.5

Give viability, T/C only, for C=CC(=O)N1CCN(c2nc(=O)n(-c3c(C)ccnc3C(C)C)c3nc(-c4c(O)cccc4F)c(F)cc23)C(C)C1 (configuration not stated) + Cc1nc(NC(=O)N2CCCC2C(N)=O)sc1-c1ccnc(C(C)(C)C(F)(F)F)c1 , using MDA-MB-231 multicell spheroids, viability data. 98.3

* * *

Tested on: MDA-MB-231 multicell spheroids, viability
Assay: Anticancer human tumor MDA-MB-231 cell line growth inhibition [PI3K];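 note: spheroids exposed to agents for seven days before reading; percent of vehicle control luminescence with DMSO treated spheroids as 100%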
Conditions: second compound 1 µM; first compound 0.1 µM; hits give low values
Quantity name: viability, T/C (%)
The reply should contain only the number, in %.

Indicate its recorded viability, T/C; the compound in question is CC(Cn1ccc(-c2ccc(C#N)c(Cl)c2)n1)NC(=O)c1cc(C(C)O)[nH]n1 (centres undefined) + COc1c(OCCCN2CCOCC2)ccc2c3n(c(=NC(=O)c4cnc(N)nc4)nc12)CCN3 24.8

Indicate its recorded viability, T/C; the compound in question is CC1(C)CCC(CN2CCN(c3ccc(C(=O)NS(=O)(=O)c4ccc(NCC5CCOCC5)c([N+](=O)[O-])c4)c(Oc4cnc5[nH]ccc5c4)c3)CC2)=C(c2ccc(Cl)cc2)C1 + CC(Nc1ccc2c(c1)OCCn1cc(N3C(=O)OCC3C(F)F)nc1-2)C(N)=O 60.2

Indicate its recorded viability, T/C; the compound in question is CC1(C)CCC(CN2CCN(c3ccc(C(=O)NS(=O)(=O)c4ccc(NCC5CCOCC5)c([N+](=O)[O-])c4)c(Oc4cnc5[nH]ccc5c4)c3)CC2)=C(c2ccc(Cl)cc2)C1 + CC(Nc1ncnc2nc[nH]c12)c1cc2cccc(Cl)c2c(=O)n1-c1ccccc1 86.6

Indicate its recorded viability, T/C; the compound in question is CC(Cn1ccc(-c2ccc(C#N)c(Cl)c2)n1)NC(=O)c1cc(C(C)O)[nH]n1 (centres undefined) + Cc1nc(NC(=O)N2CCCC2C(N)=O)sc1-c1ccnc(C(C)(C)C(F)(F)F)c1 70.9

Indicate its recorded viability, T/C; the compound in question is C=CC(=O)N1CCN(c2nc(=O)n(-c3c(C)ccnc3C(C)C)c3nc(-c4c(O)cccc4F)c(F)cc23)C(C)C1 (centres undefined) + COc1c(OCCCN2CCOCC2)ccc2c3n(c(=NC(=O)c4cnc(N)nc4)nc12)CCN3 24.3

Indicate its recorded viability, T/C; the compound in question is Cn1ncc(Cl)c1-c1cc(C(=O)NC(CN)Cc2cccc(F)c2)sc1Cl (centres undefined) + CC(Nc1ncnc2nc[nH]c12)c1cc2cccc(Cl)c2c(=O)n1-c1ccccc1 80.5

Indicate its recorded viability, T/C; the compound in question is CCCS(=O)(=O)Nc1ccc(F)c(C(=O)c2c[nH]c3ncc(-c4ccc(Cl)cc4)cc23)c1F + CC(Nc1ncnc2nc[nH]c12)c1cc2cccc(Cl)c2c(=O)n1-c1ccccc1 82.9

Indicate its recorded viability, T/C; the compound in question is CNC(=O)c1ccc(N2C(=S)N(c3ccc(C#N)c(C(F)(F)F)c3)C(=O)C2(C)C)cc1F + COc1c(OCCCN2CCOCC2)ccc2c3n(c(=NC(=O)c4cnc(N)nc4)nc12)CCN3 24.8

Indicate its recorded viability, T/C; the compound in question is CC(C)n1nc(-c2ccc3oc(N)nc3c2)c2c(N)ncnc21 + CC(Nc1ncnc2nc[nH]c12)c1cc2cccc(Cl)c2c(=O)n1-c1ccccc1 39.2

Indicate its recorded viability, T/C; the compound in question is CC(Cn1ccc(-c2ccc(C#N)c(Cl)c2)n1)NC(=O)c1cc(C(C)O)[nH]n1 (centres undefined) + CC(Nc1ccc2c(c1)OCCn1cc(N3C(=O)OCC3C(F)F)nc1-2)C(N)=O 56.3

Indicate its recorded viability, T/C; the compound in question is C=CC(=O)N1CCN(c2nc(=O)n(-c3c(C)ccnc3C(C)C)c3nc(-c4c(O)cccc4F)c(F)cc23)C(C)C1 (centres undefined) + Cc1nc(NC(=O)N2CCCC2C(N)=O)sc1-c1ccnc(C(C)(C)C(F)(F)F)c1 66.5

Indicate its recorded viability, T/C; the compound in question is CCCS(=O)(=O)Nc1ccc(F)c(C(=O)c2c[nH]c3ncc(-c4ccc(Cl)cc4)cc23)c1F + CC(Nc1ccc2c(c1)OCCn1cc(N3C(=O)OCC3C(F)F)nc1-2)C(N)=O 63.4

Indicate its recorded viability, T/C; the compound in question is C=CC(=O)N1CCN(c2nc(=O)n(-c3c(C)ccnc3C(C)C)c3nc(-c4c(O)cccc4F)c(F)cc23)C(C)C1 (centres undefined) + CC(Nc1ncnc2nc[nH]c12)c1cc2cccc(Cl)c2c(=O)n1-c1ccccc1 90.1

Indicate its recorded viability, T/C; the compound in question is CC(C)NCC(C(=O)N1CCN(c2ncnc3c2C(C)CC3O)CC1)c1ccc(Cl)cc1 (centres undefined) + Cc1nc(NC(=O)N2CCCC2C(N)=O)sc1-c1ccnc(C(C)(C)C(F)(F)F)c1 66.6

* * *

System: MDA-MB-231 multicell spheroids, viability
Experiment: Anticancer human tumor MDA-MB-231 cell line growth inhibition [PI3K];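 note: spheroids exposed to agents for seven days before reading; percent of vehicle control luminescence with DMSO treated spheroids as 100%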
Conditions: second compound 0.1 µM; first compound 0.00949 µM; hits give low values
Task for the reader: assign each of the following compounds its reported viability, T/C.
The reply should contain only the number, in %.

Indicate its recorded viability, T/C; the compound in question is Cn1cnc2c(F)c(Nc3ccc(Br)cc3Cl)c(C(=O)NOCCO)cc21 + CC(Nc1ncnc2nc[nH]c12)c1cc2cccc(Cl)c2c(=O)n1-c1ccccc1 72.2

Indicate its recorded viability, T/C; the compound in question is Cn1cnc2c(F)c(Nc3ccc(Br)cc3Cl)c(C(=O)NOCCO)cc21 + COc1c(OCCCN2CCOCC2)ccc2c3n(c(=NC(=O)c4cnc(N)nc4)nc12)CCN3 33.7

Indicate its recorded viability, T/C; the compound in question is Cn1cnc2c(F)c(Nc3ccc(Br)cc3Cl)c(C(=O)NOCCO)cc21 + Cc1nc(NC(=O)N2CCCC2C(N)=O)sc1-c1ccnc(C(C)(C)C(F)(F)F)c1 58.1

Indicate its recorded viability, T/C; the compound in question is Cn1cnc2c(F)c(Nc3ccc(Br)cc3Cl)c(C(=O)NOCCO)cc21 + CC(Nc1ccc2c(c1)OCCn1cc(N3C(=O)OCC3C(F)F)nc1-2)C(N)=O 50.9
